# credit: patent US20210045385A1

# Galium plant response rating (0 to 100 scale) annotations
System: galium (catchweed bedstraw, Galium aparine)
Assay: Test C postemergence, visual plant response rating
Assay type: in vivo
Conditions: Postemergence, 31 g ai/ha
Measurement kind: Galium plant response rating (0 to 100 scale)

Compound | Measured value
C#CCO/N=C(/c1c(O)c(Cl)nn(C)c1=O)c1ccc(F)c2ccccc12 | 80
C#CCO/N=C(\c1cccc(Br)c1)c1c(O)c(C)nn(C)c1=O | 80
C=CCO/N=C(/c1c(O)c(C)nn(C)c1=O)c1cccc2cc(Cl)ccc12 | 80

###

Test system: pigweed (Amaranthus retroflexus)
Assay: Test C preemergence, visual plant response rating
Format: in vivo
Conditions: Test C, 31 g ai/ha, 0 is no effect, 100 is complete control
Measurement kind: Pigweed plant response rating (0 to 100 scale)

Compound | Measured value
C#CCO/N=C(\c1c(O)c(Cl)nn(C)c1=O)c1ccc(F)c2ccccc12 | 30
Cc1nn(C)c(=O)c(/C(=N/OC(C)C)c2cc(Cl)cc(Cl)c2F)c1O | 100
Cc1nn(C)c(=O)c(/C(=N/OC(C)C)c2cc(Cl)cc(Cl)c2Cl)c1O | 70
C#CCO/N=C(\c1cc(Cl)cc(Cl)c1Cl)c1c(O)c(C)nn(C)c1=O | 60
CO/N=C(/c1c(O)c(C)nn(C)c1=O)c1cccc2cc(SC)ccc12 | 0
Cc1nn(C)c(=O)c(/C(=N/OC(C)C)c2cccc3cc(Cl)ccc23)c1O | 50
